Test system: Plasmodium falciparum
assay protocol: GSK_TCMDC: Inhibition of Plasmodium falciparum 3D7 in whole red blood cells, using parasite LDH activity as an index of growth. Test compounds present at 2uM
Assay type: functional
measurement label: Inhibition (%)
Output spec: scalar in %, unitless text.

Inhibition recorded for this molecule, Cc1cccc(C)c1CNc1ccnc2ccccc12.Cl , is 92

Measured Inhibition of COc1ccc(Nc2ncc3c(-c4cccc(NC(=O)Cc5ccc(F)cc5)c4)c[nH]c3n2)cc1OC : 100

Data point: O=C(NCc1cccc(F)c1)Nc1cccc(-c2cccc(-c3nc4cc(C(F)(F)F)ccc4[nH]3)c2)c1 ; Inhibition = 93

Entry under test: COc1cc(C(=O)N2CCOC(CCN3CCC[C@H]3C(=O)Nc3ccccc3)(c3ccc(Cl)c(Cl)c3)C2)cc(OC)c1OC (some centres undefined) . Its Inhibition was 98

The reported Inhibition of the molecule CC1CCN(CC[C@H]2CCCN2S(=O)(=O)c2cccc(NC(=O)c3ccc(-c4ccccc4)cc3)c2)CC1 was 87

// Inhibition lookup, molecule = Brc1cc(Br)c2c(c1)C(NCCCNc1nc3ncccc3[nH]1)CCN2.O=C(O)CCC(=O)O (centres undefined) , result: 99

Kindly note the recorded Inhibition for O=C(Nc1ccccc1)NC1CCN(CCC2(c3ccc(Cl)c(Cl)c3)COCN(C(=O)c3ccccc3)C2)C1 (centres undefined) , which is 92

Entry under test: Cc1[nH]c2c(NCc3ccc(F)cc3)nccc2c1C . Its Inhibition was 83

Inhibition measured on NC1CCN(Cc2cccc(-c3ccc(-c4nc5cc(F)ccc5[nH]4)cc3)c2)C1.O=C(O)C(F)(F)F (centres undefined) = 99

* * *

// Inhibition lookup, one value per entry
Tested on: HepG2
assay protocol: GSK_TCMDC: Percent inhibition of human HepG2 cell line. Test compounds present at 10uM.
Assay type: functional

Examples with answers:
[[record]]
smiles_structure = "COCCOc1nc(N)nc2ncc(Cc3cc(OC)ccc3OC)c(C)c12"
test_value = "61%"

[[record]]
smiles_structure = "CSc1cccc(NC(=O)Nc2ccc(I)c(OCCN(C)C)c2)c1"
test_value = "14%"

[[record]]
smiles_structure = "CN(C)C(=O)CC(=O)NCc1c(Cl)cccc1Cl"
test_value = "2%"

[[record]]
smiles_structure = "COc1ccc(NC(=O)CCNc2cc(C)nc(NCc3cccc(C)c3)n2)cc1.O=C(O)C(F)(F)F"
test_value = "14%"


Now let's try a different one.
Inhibition for Cc1cccc2nc(-c3ccc(-c4cccc(CNCCNC(=O)c5ccnn5C)c4)cc3)[nH]c12.O=C(O)C(F)(F)F is 17%

* * *

Test system: HepG2
assay protocol: GSK_TCMDC: Percent inhibition of human HepG2 cell line. Test compounds present at 10uM.
Format: functional
Inhibition overview

Reference set, count: 5
[[record]]
compound = "NS(=O)(=O)CCc1cccc(Nc2nccc(-c3c(-c4cccc(NC(=O)c5c(F)cccc5F)c4)nn4ccccc34)n2)c1"
test_value = "84%"

[[record]]
compound = "Cc1cc(C)cc(N2C(N)=NC(N)=NC2(C)C)c1.Cl"
test_value = "58%"

[[record]]
compound = "Oc1ccc(Nc2nc(NCc3ccco3)c3ccccc3n2)cc1"
test_value = "7%"

[[record]]
compound = "O=C(O)C(F)(F)F.O=S(=O)(NCCN1CCCC1)c1ccc(-c2ccc(CNCc3ccccc3)cc2)cc1F"
test_value = "35%"

[[record]]
compound = "CC(C)C(=O)NC(Nc1ccc([N+](=O)[O-])cc1)C(Cl)(Cl)Cl (configuration not stated)"
test_value = "7%"


Entry CSc1cccc(Nc2nc3ccc(S(=O)(=O)NCC(C)C)cc3n2C(C)C(C)C)c1 (configuration not stated) ; Inhibition = 3%

Noted for Cc1ncccc1C(=O)Nc1cccc(-c2cccc(-c3nc4cccc(C)c4[nH]3)c2)c1 : its Inhibition reads 6%

Lab note: COc1ccc(C(=O)NCc2ccc(N)nc2C)cc1Nc1ncc(-c2cccc(N(C)C)c2)cn1 gave Inhibition of 9%

Lab note: Cc1cccc2nc(-c3ccc(-c4ccc(CN5CCN(c6cnccn6)CC5)cc4)s3)[nH]c12.O=C(O)C(F)(F)F gave Inhibition of 11%

* * *

Test system: Plasmodium falciparum
assay protocol: GSK_TCMDC: Inhibition of Plasmodium falciparum 3D7 in whole red blood cells, using parasite LDH activity as an index of growth. Test compounds present at 2uM
Assay type: functional
measurement label: Inhibition
Could you kindly put the unit after your number?

# count of solved cases: 6
[[record]]
compound = "O=C(O)C(F)(F)F.Oc1ccc(CCNc2nc(NCc3ccccc3-c3ccc(C(F)(F)F)cc3)nc(N3CCCNCC3)n2)cc1"
test_value = "95%"

[[record]]
compound = "O=C(Nc1ccc(F)cc1F)NC1CCN(c2ccnc3cc(Cl)ccc23)C1.O=C(O)C(F)(F)F (centres undefined)"
test_value = "100%"

[[record]]
compound = "COc1ccc(C(=O)CCc2ccc(O)cc2)cc1"
test_value = "96%"

[[record]]
compound = "C=C[C@H]1CN2CC[C@H]1C[C@@H]2[C@@H](O)c1ccnc2ccc(OC)cc12 [QUINIDINE]"
test_value = "98%"

[[record]]
compound = "Cl.O=C(Nc1ccc(C(=O)Nc2cccc(C3=NCCN3)c2)cc1)Nc1ccc(C2=NCCN2)cc1"
test_value = "96%"

[[record]]
compound = "CC(Cc1ccc(NC(=O)c2ccc(CC(C)NCc3ccc(Cl)c(Cl)c3)cc2)cc1)NCCc1cccc(Cl)c1 (centres undefined)"
test_value = "92%"


Value (Inhibition, Plasmodium falciparum) for record Clc1ccc(Nc2nc3nonc3nc2Nc2ccc(Cl)c(Cl)c2)cc1 = 99%

Fill in: Plasmodium falciparum Inhibition for Cc1cc(Nc2ccc(C)c(Cl)c2)n2nc(C(F)(F)F)nc2n1 = 98%

Short answer on Plasmodium falciparum for N=C(N)Nc1nc(-c2cccc(NC(=O)Cc3ccccc3)c2)cs1 , Inhibition: 99%

* * *

Tested on: Plasmodium falciparum
assay protocol: GSK_TCMDC: Inhibition of Plasmodium falciparum Dd2 in whole red blood cells, using parasite LDH activity as an index of growth. Test compounds present at 2uM
Type: functional
Attribute: Inhibition
All answers are understood in %, so give the number only.

Study these solved cases before continuing.
[[record]]
smiles_structure = "CCCOc1cc(Cc2cnc(N)nc2N)cc(OC)c1OC"
test_value = 1

[[record]]
smiles_structure = "COc1ccc2ccccc2c1C=NN=c1cc[nH]c2ccc(F)cc12"
test_value = 10

[[record]]
smiles_structure = "CCN(CCCN1CCCCC1)c1cc(C)nc(Nc2ccc3c(c2)CCC3)n1.O=C(O)C(F)(F)F"
test_value = 93


Reported Inhibition of COc1ccc(NC(=O)Nc2cccc(-c3cccc(-c4nc5ccccc5[nH]4)c3)c2)cc1 : 41

Inhibition measured on COc1ccc2nc3ccccc3c(NCCN3CCN(C)CC3)c2c1 = 10

* * *

System: Plasmodium falciparum
assay protocol: GSK_TCMDC: Inhibition of Plasmodium falciparum Dd2 in whole red blood cells, using parasite LDH activity as an index of growth. Test compounds present at 2uM
Format: functional
Inhibition strictly less than 20% = Satisfied. Otherwise Not satisfied.

Sample answers from the record:
[[record]]
molecule = "Cl.Nc1c2c(nc3ccc(C(=O)Nc4cc(I)c(O)c(I)c4)cc13)CCCC2"
qualitative_label = "Not satisfied"

[[record]]
molecule = "O=C(Nc1cccc(OC2CCN(Cc3ccccc3)CC2)c1)c1ccc([N+](=O)[O-])cc1.O=C(O)C(F)(F)F"
qualitative_label = "Satisfied"

[[record]]
molecule = "O=C(C=Cc1ccc(Cl)c(Cl)c1)NCCCCCN1CCC(CCNC(=O)/C=C/c2ccccc2)CC1"
qualitative_label = "Satisfied"

[[record]]
molecule = "COc1ccccc1-c1csc(C(=O)NCC2CCN(Cc3ccc(C(C)C)cc3)C2)c1.O=C(O)C(F)(F)F (stereo not drawn)"
qualitative_label = "Satisfied"

[[record]]
molecule = "COc1ccc(C2CCN(CCCNC(=O)c3ccc(NC(=O)c4ccc(Cl)cc4)cc3)CC2)c(OC)c1"
qualitative_label = "Not satisfied"

[[record]]
molecule = "COc1ccc(-c2cccc(NC(=O)c3cccc(Cl)c3)c2)cc1CN1CCC(O)CC1.O=C(O)C(F)(F)F"
qualitative_label = "Satisfied"

[[record]]
molecule = "O=C(NC1CCCCN(Cc2ccccc2O)C1)c1ccc(Cl)c(Cl)c1.O=C(O)C(F)(F)F (stereo not drawn)"
qualitative_label = "Not satisfied"

[[record]]
molecule = "O=C(N[C@H]1CCN(Cc2ccc(OC3CCN(Cc4ccccc4)CC3)cc2)C1)c1ccc(Cl)c(Cl)c1.O=C(O)C(F)(F)F"
qualitative_label = "Satisfied"

[[record]]
molecule = "OC(CNCc1ccco1)Cn1c2ccc(Br)cc2c2cc(Br)ccc21 (stereo not drawn)"
qualitative_label = "Not satisfied"

[[record]]
molecule = "COc1cccc(CNC(=O)[C@H]2CNCCN2C(=O)CCCc2ccccc2)c1.O=C(O)C(F)(F)F"
qualitative_label = "Not satisfied"


Identify whether the molecule CC(C)OC(=O)c1ccc(NC(=O)N[C@@H](Cc2ccc(O)cc2)C(=O)NC2CCC(CCN3C4CCC3c3ccccc34)CC2)cc1.O=C(O)C(F)(F)F (stereo partly drawn) records Inhibition below 20%. Not satisfied

Does the reported Inhibition of CCc1c(CCNCCCCCCNC(C)(C)Cc2ccc3c(c2CC)OCO3)ccc(OC)c1OC.Cl stay below 20%? Not satisfied

Does CCOc1ccc(C(C)NC(=O)C2COc3ccccc3O2)cc1OCC (stereo not drawn) have Inhibition strictly under 20%? Not satisfied

Check if Inhibition falls below 20% for CCC(C)NC(=O)CN1CN(c2ccccc2)C2(CCN(C(=O)c3ccc4ccccc4c3)CC2)C1=O (stereo not drawn) . Not satisfied

Dear colleague, could you confirm whether Inhibition of Nc1c(Cl)cc(C(O)CNCCCCCCOCCc2ccc(O)cc2)cc1Cl.O=C(O)/C=C/C(=O)O (stereo not drawn) falls below 20%? Thanks. Not satisfied

Given the entry O=C(/C=C/c1ccc(Cl)c(Cl)c1)N1CCC(CN2CCC(Cc3cc4ccccc4[nH]3)CC2)CC1 , would its reported Inhibition be below 20%? Not satisfied

Is the reported Inhibition for Nc1ncc(-c2ccc(Cl)c(Cl)c2)c(N)n1 strictly below 20%? Satisfied

Threshold test, Inhibition < 20%: CCc1ccc(CN2CCC(NC(=O)c3ccc(-c4ccccc4F)s3)CC2)cc1.O=C(O)C(F)(F)F Satisfied

This collection of values is drawn from ChEMBL document CHEMBL1157539.
